The measurements presented in this section are drawn from patent US10087187B2.

Would you kindly list Kd for each of these compounds?
- target.or.system: MTOR_h (Homo sapiens (Human), UniProt P42345)
- experiment.summary: KINOMEscan enzyme binding assay, MTOR
- condition.description: DiscoveRx

Request: Param item = Cc1c(Cc2c(C(C)O)nc3c(-c4ncc[nH]4)cc(N4CCOCC4)nn23)cccc1C(F)(F)F (stereo not drawn) [Compound 31] ; retrieve measured Kd.
Result: > 10 µM

Request: Look up Kd: Cc1nc2c(N)cc(N3CCOCC3)nn2c1Nc1cccc(C(F)(F)F)c1CN1CCCC1 [Compound 62]
Result: > 30.2 µM

Request: Return reported Kd; argument: Cc1nc2c(N)cc(N3CCOCC3)nn2c1Nc1cccc(F)c1CNC(C)CO (stereo not drawn) [Compound 71]
Result: > 30.2 µM

###

Provide the recorded IC50 for the entries that follow.
- Test system: Akt phosphorylated at Thr308 in PC-3 cells
- experiment.summary: Cellular assay: phosphorylation of Akt (Thr308) in PC-3 cells, MSD ELISA
- Type: cell-based
- condition.description: Homo sapiens, PC-3, 1 h, 60 min incubation with compound, read-out: IC50 pAkt_Thr308

Request: Would you mind telling me what IC50 value was observed for `Cc1nc2c(C(N)=O)cc(N3CCOCC3)nn2c1Cc1cccc(C(F)(F)F)c1C` ?
Result: > 513 nM

Request: Name the recorded IC50 for `Cc1c(Cc2c(CO)nc3c(-c4ncc[nH]4)cc(N4CCOCC4)nn23)cccc1C(F)(F)F` .
Result: ~25 nM

Request: Return reported IC50; argument: `Cc1nc2c(N)cc(N3CCOCC3)nn2c1Nc1cccc(F)c1C`
Result: ~11 nM

Request: Please report the recorded IC50 for `Cc1nc2c(N)cc(N3CCOCC3)nn2c1Nc1cccc(C(F)(F)F)c1CN1CCC2(C1)CS(=O)(=O)C2` .
Result: ~21 nM

###

Field: Kd. Provide a value for each of the compounds that follow.

Request: Request body: readout Kd, system PIK3Cγ_h (Homo sapiens (Human)), query Cc1c(Cc2c(CO)nc3c(N)cc(N4CCOCC4)nn23)cccc1C(F)(F)F [Compound 14a] . Return the value.
Result: > 10 µM

Request: Notebook: pull reported Kd for PIK3Cγ_h (Homo sapiens (Human)), entry `Cc1nc2c(-c3ncc[nH]3)cc(N3CCOCC3)nn2c1Cc1cccc(C(F)(F)F)c1C`
Result: > 30.2 µM

Request: // lookup Kd | system=PIK3Cγ_h (Homo sapiens (Human)) | key= `CC(=O)NCc1nc2c(-c3ncc[nH]3)cc(N3CCOCC3)nn2c1Cc1cccc(C(F)(F)F)c1C`
Result: > 30.2 µM

Request: I'm curious: which Kd was measured for `Cc1c(Cc2c(CN(C)CCS(C)(=O)=O)nc3c(N)cc(N4CCOCC4)nn23)cccc1C(F)(F)F` tested on PIK3Cγ_h (Homo sapiens (Human))?
Result: > 30.2 µM

###

- target.or.system: PIK3Cα_h (Homo sapiens (Human), UniProt P42336)
- Sequence (P42336 whole entry): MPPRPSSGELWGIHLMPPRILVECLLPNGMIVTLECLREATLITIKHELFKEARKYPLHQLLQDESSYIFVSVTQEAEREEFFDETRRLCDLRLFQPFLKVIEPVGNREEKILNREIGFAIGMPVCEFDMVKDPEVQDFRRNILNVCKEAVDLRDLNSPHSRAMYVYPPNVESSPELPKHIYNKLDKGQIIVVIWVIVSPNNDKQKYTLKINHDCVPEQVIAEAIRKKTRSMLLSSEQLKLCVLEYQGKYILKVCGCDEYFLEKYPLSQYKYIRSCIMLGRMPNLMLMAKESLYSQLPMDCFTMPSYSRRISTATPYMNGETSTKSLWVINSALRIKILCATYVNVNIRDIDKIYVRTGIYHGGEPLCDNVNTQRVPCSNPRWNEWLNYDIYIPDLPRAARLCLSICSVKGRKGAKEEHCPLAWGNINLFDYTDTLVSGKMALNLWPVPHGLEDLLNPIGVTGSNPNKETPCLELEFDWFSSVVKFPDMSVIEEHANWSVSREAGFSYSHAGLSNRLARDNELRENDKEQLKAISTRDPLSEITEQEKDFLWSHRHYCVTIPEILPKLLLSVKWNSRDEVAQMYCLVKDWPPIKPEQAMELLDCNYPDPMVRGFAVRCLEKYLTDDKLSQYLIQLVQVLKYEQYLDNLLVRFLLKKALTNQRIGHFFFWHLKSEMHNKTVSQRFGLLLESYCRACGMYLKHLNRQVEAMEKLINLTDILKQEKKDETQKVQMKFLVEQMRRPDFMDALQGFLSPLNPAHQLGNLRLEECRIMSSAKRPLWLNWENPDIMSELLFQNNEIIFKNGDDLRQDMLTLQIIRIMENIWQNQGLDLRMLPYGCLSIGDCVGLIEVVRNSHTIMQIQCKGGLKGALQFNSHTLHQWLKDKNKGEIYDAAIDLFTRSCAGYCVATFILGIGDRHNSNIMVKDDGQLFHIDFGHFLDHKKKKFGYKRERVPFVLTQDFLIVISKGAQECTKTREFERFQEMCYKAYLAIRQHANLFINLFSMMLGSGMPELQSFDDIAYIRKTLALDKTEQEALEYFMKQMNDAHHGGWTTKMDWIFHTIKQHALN
measured.attribute: Kd (µM)
Numbers only; they are read as µM.

Request: Suppose we examine the compound Cc1nc2c(N)cc(N3CCOCC3)nn2c1Nc1cccc(C(F)(F)F)c1CN1CCC(O)C1 (centres unmarked) [Compound 77] ; what Kd value has been reported?
Result: 3.16

Request: # lookup: Kd of Cc1c(Cc2c(COC(=O)C(N)C(C)C)nc3c(N)cc(N4CCOCC4)nn23)cccc1C(F)(F)F (centres unmarked) [Compound 82]
Result: 32.4

Request: GET /values?readout=Kd&item= Cc1nc2c(N)cc(N3CCOCC3)nn2c1Cc1cccc(F)c1C1CCNCC1 [Compound 106]
Result: 2.75

Request: Recorded Kd for Cc1nc2c(N)cc(N3CCOCC3)nn2c1Nc1cccc(C(F)(F)F)c1CN1CCC(S(C)(=O)=O)CC1 [Compound 54] , please?
Result: 16.2

Request: Kd for Cc1nc2c(N)cc(N3CCOCC3)nn2c1Cc1cccc(F)c1C1CCN(CCO)CC1 [Compound 107] ?
Result: 11.7

Request: Please report the recorded Kd for Cc1nc2c(N)cc(N3CCOCC3)nn2c1Nc1cccc(C(F)(F)F)c1CN1CC2(CCS2(=O)=O)C1 [Compound 53] .
Result: 10

Request: # query: Kd of entry Cc1c(Cc2c(CF)nc3c(N)cc(N4CCOCC4)nn23)cccc1C(F)(F)F [Compound 17]
Result: 17

Request: Find the recorded Kd belonging to Cc1nc2c(N)cc(N3CCOCC3)nn2c1Nc1ccccc1N1CCOCC1 [Compound 88] and report it.
Result: 11.2

###

Give Kd for every item shown.
Answer in µM, number only, no unit symbol.

Request: Query the reported Kd for PIK3Cγ_h (Homo sapiens (Human), UniProt P48736); item: Cc1cccc(Cc2c(C)nc3c(C(=O)O)cc(N4CCOCC4)nn23)c1C [Compound 12]
Result: 6.17

Request: GET /values?readout=Kd&system=PIK3Cγ_h (Homo sapiens (Human), UniProt P48736)&item= Cc1nc2c(N)cc(N3CCOCC3)nn2c1Cc1cccc(F)c1C1CCNCC1 [Compound 106]
Result: 5.01

Request: // fetch PIK3Cγ_h (Homo sapiens (Human), UniProt P48736) Kd for Cc1c(Nc2c(CO)nc3c(C(N)=O)cc(N4CCOCC4)nn23)cccc1C(F)(F)F [Compound 37]
Result: 0.759

Request: Param readout= Kd; system= PIK3Cγ_h (Homo sapiens (Human), UniProt P48736); entry= Cc1nc2c(C(=O)O)cc(N3CCOC(C)C3)nn2c1Cc1cccc(C(F)(F)F)c1C (stereo not drawn) [Compound 28] ; returns value.
Result: 5.5

Request: Identify the measured Kd of Cc1nc2c(N)cc(N3CCOCC3)nn2c1Cc1cccc(F)c1CNC(C)CO (stereo not drawn) [Compound 103] for PIK3Cγ_h (Homo sapiens (Human), UniProt P48736).
Result: 31.6

Request: Missing value: Kd, PIK3Cγ_h (Homo sapiens (Human), UniProt P48736), entry Cc1c(Cc2c(CO)nc3c(N)cc(N4CCOC(C)C4)nn23)cccc1C(F)(F)F (stereo not drawn) [Compound 26] . Fill in?
Result: 11.7

###

- System: Akt phosphorylated at Thr308 in PC-3 cells
- experiment.summary: Cellular assay: phosphorylation of Akt (Thr308) in PC-3 cells, MSD ELISA
- Assay type: cell-based
- condition.description: Homo sapiens, PC-3, 1 h, 60 min incubation with compound, read-out: IC50 pAkt_Thr308
Record form. Attribute: IC50. Fill in for each entry.

Request: I am curious: what IC50 value has been reported for `Cc1cccc(Nc2c(C)nc3c(N)cc(N4CCOCC4)nn23)c1C` ?
Result: ~43 nM

Request: For Cc1c(Cc2c(CO)nc3c(N)cc(N4CCOC(C)C4)nn23)cccc1C(F)(F)F (centres unmarked) , what is its reported IC50?
Result: ~309 nM

Request: Find the recorded IC50 belonging to `Cc1c(Cc2c(CO)nc3c(C(=O)O)cc(N4CCOCC4)nn23)cccc1C(F)(F)F` and report it.
Result: > 513 nM

Request: Param item = `Cc1nc2c(-c3cnc[nH]3)cc(N3CCOCC3)nn2c1Nc1cccc2c1CNCC2` ; retrieve measured IC50.
Result: > 513 nM

Request: Reported IC50, compound Cc1c(Cc2c(COC(=O)C(N)C(C)C)nc3c(N)cc(N4CCOCC4)nn23)cccc1C(F)(F)F (centres unmarked) : ____
Result: ~123 nM

Request: What IC50 value was documented for this compound, Cc1c(Cc2c(CO)nc3c(N)cc(N4CCOCC4)nn23)cccc1C(F)(F)F [Compound 14c] ?
Result: ~49 nM

Request: Look up IC50 for this compound: `Cc1c(Cc2c(CO)nc3c(C(N)=O)cc(N4CCOCC4)nn23)cccc1C(F)(F)F`
Result: ~43 nM

Request: Look up IC50: `Cc1c(Cc2c(CF)nc3c(N)cc(N4CCOCC4)nn23)cccc1C(F)(F)F`
Result: ~50 nM

Request: // query IC50 value for entry `Cc1nc2c(N)cc(N3CCOCC3)nn2c1Nc1ccccc1N1CCOCC1`
Result: 120 nM

Request: Can you share its IC50? I mean this compound: `Cc1nc2c(N)cc(N3CCOCC3)nn2c1Cc1cccc(F)c1C1CCNCC1`
Result: 129 nM

Request: Given the compound `Cc1nc2c(N)cc(N3CCOCC3)nn2c1Nc1cccc(C(F)(F)F)c1C1CCN(CCO)CC1` , what is its reported IC50?
Result: ~72 nM

Request: Looking for the measured IC50 of `Cc1nc2c(C(=O)O)cc(N3CCOCC3)nn2c1Nc1ccccc1N1CCOCC1` , can you help?
Result: > 513 nM

Request: Any idea what IC50 was measured for `Cc1nc2c(C(=O)O)cc(N3CCOCC3)nn2c1Cc1cccc(Cl)c1C` ?
Result: ~263 nM

Request: Report IC50 for `Cc1cccc(Nc2c(C)nc3c(N)cc(N4CCOCC4)nn23)c1C1CCNCC1` please.
Result: ~148 nM
